Data provenance is ChEMBL document CHEMBL2086322.

Protocol details: Cytotoxicity against human PWR-1E cells assessed as cell viability at 50 uM after 24 hrs by alamar blue assay
Assay type: cell-based
Measurement setup: read-out: Activity
Below is a list of entries, each paired with its recorded viability at 24 h, 50 µM value.
Response body: numeric value in %, unit text excluded.

COc1cc(/C=N/NC(=O)c2cc3c(ccc4ccccc43)o2)cc(OC)c1O    80

Alright, here's another molecule for you.
Exam item: Quick one: viability at 24 h, 50 µM for O=C(N/N=C/c1cc(Br)ccc1O)c1cc2ccccc2cc1O ?
Marked response: 50
